- System: H929 cells
- assay explanation: In vitro cell viability assay (CellTiter-Glo)
- Format: cell-based, human
- particulars: Homo sapiens, NCI-H929, NCI-H929, arithmetic mean; read-out: Arithmetic Mean EC50 µM
Each item that follows carries a reported log10 of EC50.
Field: value | Transform: log10 | Quantity: EC50 | Unit: µM

Take a look at these entries with their results.
| molecule | log10 of EC50 |
| --- | --- |
| Cc1c(Cl)c2c(Cl)c(C)c1-c1c(-c3ccc(F)cc3)sc3ncnc(c13)O[C@@H](C(=O)O)Cc1cc(ccc1OCc1ccnc(-c3ccc(OC[C@H]4COCCO4)cc3)n1)OC[C@@H](CN1CCN(C)CC1)O2 | -3.33 |
| CO[C@]1(CN2CCN3CCCC[C@@H]3C2)/C=C/C[C@H](C)[C@@H](C)S(=O)(=O)NC(=O)c2ccc3c(c2)N(C[C@@H]2CC[C@H]21)C[C@@]1(CCCc2cc(Cl)ccc21)CO3 [AMG 397, reference compound] | -1.89 |
| Cc1c2c(nn1C)CSCc1cc(n(C)n1)CSc1cc(c3ccccc3c1)OCCCc1c(C(=O)O)n(C)c3c-2c(Cl)ccc13 | -1.50 |
| COc1ccccc1-c1nccc(COc2ccccc2CC(Oc2ncnc3sc(-c4ccc(F)cc4)c(-c4ccc(OCCN5CCN(C)CC5)c(Cl)c4C)c23)C(=O)O)n1 (centres unmarked) [Compound 1, reference compound] | -2.32 |

Shifting focus to the molecule that follows.
May I ask what log10 of EC50 has been recorded for CO[C@H]1/C=C/C[C@H](C)[C@@H](C)S(=O)(=O)NC(=O)c2ccc3c(c2)N(C[C@@H]2CC[C@H]21)C[C@@]1(CCCc2cc(Cl)ccc21)CO3 ?
-0.71

----------
- target or test system: rat Mcl1 (Rattus norvegicus)
- Sequence (Q9Z1P3 151-307): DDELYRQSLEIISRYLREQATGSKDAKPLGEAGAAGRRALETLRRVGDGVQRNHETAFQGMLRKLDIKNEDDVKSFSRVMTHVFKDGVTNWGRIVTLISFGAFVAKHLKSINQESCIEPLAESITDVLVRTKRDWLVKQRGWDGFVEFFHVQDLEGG
- assay explanation: TR-FRET binding assay, MCL-1 orthologs
quantity measured: Ki

API: value(readout=Ki, system=rat Mcl1 (Rattus norvegicus)) for record Cc1c(Cl)c2c(Cl)c(C)c1-c1c(-c3ccc(F)cc3)sc3ncnc(c13)O[C@@H](C(=O)O)Cc1cc(ccc1OCc1ccnc(-c3ccc(OC[C@H]4COCCO4)cc3)n1)OC[C@@H](CN1CCN(C)CC1)O2 [ABBV-467]
< 0.1 nM

----------
- target or test system: off-target receptors, ion channels, and transporters
- assay explanation: Off-target profiling (Supplementary Data 1)
- particulars: read-out: Cav1.2 (L-type) ND7/23 Mouse/Rat - EC50; Bioprofiling 6pt Ag
pEC50: −log10 of the molar value.
quantity measured: pEC50

May I ask what pEC50 has been recorded for Cc1c(Cl)c2c(Cl)c(C)c1-c1c(-c3ccc(F)cc3)sc3ncnc(c13)O[C@@H](C(=O)O)Cc1cc(ccc1OCc1ccnc(-c3ccc(OC[C@H]4COCCO4)cc3)n1)OC[C@@H](CN1CCN(C)CC1)O2 ?
< 5.00

----------
- assay explanation: Phase 1 first-in-human study (NCT04178902): pharmacokinetics
- Format: in vivo
- particulars: human, plasma, intravenous, 0.32 mg/kg, Cycle 1 day 1, dose level 0.32 mg/kg (only half of this dose given), N=2, individual values
quantity measured: clearance (mL/min/kg)
Report the value in mL/min/kg with no unit label.

May I ask what clearance has been recorded for Cc1c(Cl)c2c(Cl)c(C)c1-c1c(-c3ccc(F)cc3)sc3ncnc(c13)O[C@@H](C(=O)O)Cc1cc(ccc1OCc1ccnc(-c3ccc(OC[C@H]4COCCO4)cc3)n1)OC[C@@H](CN1CCN(C)CC1)O2 ?
15.9
